Test system: A375 multi-cell spheroids with HUVEC/MSC, viability
Test: Anticancer human tumor A375 cell line growth inhibition [GQUAD];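 note: spheroids exposed to compounds for seven days before readout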
Conditions: curve of first compound; second compound 0.1 µM
pIC50: −log10 of the molar value.
property measured: pIC50

{"compound": "CC[C@@]1(O)C(=O)OCc2c1cc1n(c2=O)Cc2cc3c(CN(C)C)c(O)ccc3nc2-1 + CN(C)c1ccc(Nc2c3ccc(NC(=O)CCN4CCCC4)cc3nc3cc(NC(=O)CCN4CCCC4)ccc23)cc1", "comparison sign": "=", "observed": 7.34}
{"compound": "O=C(NO)c1cnc(N2CCN(S(=O)(=O)c3ccc4ccccc4c3)CC2)nc1 + Cc1[nH]c2ccc(F)cc2c1-c1nc2c3cccnc3c3ncccc3c2[nH]1", "comparison sign": "=", "observed": 6.35}
{"compound": "C=CC(=O)N1CCN(c2nc(=O)n(-c3c(C)ccnc3C(C)C)c3nc(-c4c(O)cccc4F)c(F)cc23)C(C)C1 (stereo unspecified) + Cc1[nH]c2ccc(F)cc2c1-c1nc2c3cccnc3c3ncccc3c2[nH]1", "comparison sign": "<", "observed": 5.00}
{"compound": "Cn1ncnc1[C@H]1c2n[nH]c(=O)c3cc(F)cc(c23)N[C@@H]1c1ccc(F)cc1 + Cc1[nH]c2ccc(F)cc2c1-c1nc2c3cccnc3c3ncccc3c2[nH]1", "comparison sign": "<", "observed": 6.50}
{"compound": "O=C(NO)c1cnc(N2CCN(S(=O)(=O)c3ccc4ccccc4c3)CC2)nc1 + Cc1cnc(CNC(=O)c2c(=O)c3ccc(N4CCCN(C)CC4)nc3n3c2sc2ccccc23)cn1", "comparison sign": "=", "observed": 6.91}
{"compound": "Nc1ccn(C2OC(CO)C(O)C2(F)F)c(=O)n1 (stereo unspecified) + Cc1[nH]c2ccc(F)cc2c1-c1nc2c3cccnc3c3ncccc3c2[nH]1", "comparison sign": ">", "observed": 7.50}

* * *

System: A375 multi-cell spheroids with HUVEC/MSC, viability
Experiment: Anticancer human tumor A375 cell line growth inhibition [GQUAD]; active = viability on the fitted dose curve at most 10% of control; inactive = the rest;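 note: spheroids exposed to compounds for seven days before readout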
Details: second compound 3.16 µM; first compound 0.316 µM
Classes used: active, inactive

{"molecule": "C=CC(=O)N1CCN(c2nc(=O)n(-c3c(C)ccnc3C(C)C)c3nc(-c4c(O)cccc4F)c(F)cc23)C(C)C1 (stereo not given) + CN(C)c1ccc(Nc2c3ccc(NC(=O)CCN4CCCC4)cc3nc3cc(NC(=O)CCN4CCCC4)ccc23)cc1", "measurement target": "A375 multi-cell spheroids with HUVEC/MSC, viability", "class name": "inactive"}
{"molecule": "C=CC(=O)N1CCN(c2nc(=O)n(-c3c(C)ccnc3C(C)C)c3nc(-c4c(O)cccc4F)c(F)cc23)C(C)C1 (stereo not given) + Cc1cnc(CNC(=O)c2c(=O)c3ccc(N4CCCN(C)CC4)nc3n3c2sc2ccccc23)cn1", "measurement target": "A375 multi-cell spheroids with HUVEC/MSC, viability", "class name": "inactive"}
{"molecule": "CC[C@@]1(O)C(=O)OCc2c1cc1n(c2=O)Cc2cc3c(CN(C)C)c(O)ccc3nc2-1 + Cc1cnc(CNC(=O)c2c(=O)c3ccc(N4CCCN(C)CC4)nc3n3c2sc2ccccc23)cn1", "measurement target": "A375 multi-cell spheroids with HUVEC/MSC, viability", "class name": "inactive"}
{"molecule": "Nc1ccn(C2OC(CO)C(O)C2(F)F)c(=O)n1 (stereo not given) + CN(C)c1ccc(Nc2c3ccc(NC(=O)CCN4CCCC4)cc3nc3cc(NC(=O)CCN4CCCC4)ccc23)cc1", "measurement target": "A375 multi-cell spheroids with HUVEC/MSC, viability", "class name": "active"}
{"molecule": "CC(C)n1c(=O)n(C)c2cnc3cc(F)c(-c4ccc(OCCCN5CCCCC5)nc4)cc3c21 + CN(C)c1ccc(Nc2c3ccc(NC(=O)CCN4CCCC4)cc3nc3cc(NC(=O)CCN4CCCC4)ccc23)cc1", "measurement target": "A375 multi-cell spheroids with HUVEC/MSC, viability", "class name": "inactive"}
{"molecule": "CC(C)(O)C1CCC(Nc2ccc3ncc(-c4cccc(C(F)(F)F)c4)n3n2)CC1 (stereo not given) + CN(C)c1ccc(Nc2c3ccc(NC(=O)CCN4CCCC4)cc3nc3cc(NC(=O)CCN4CCCC4)ccc23)cc1", "measurement target": "A375 multi-cell spheroids with HUVEC/MSC, viability", "class name": "inactive"}
{"molecule": "CC1COCCN1c1cc(-c2ccnn2C)c2ccnc(-c3ccn[nH]3)c2n1 (stereo not given) + Cc1cnc(CNC(=O)c2c(=O)c3ccc(N4CCCN(C)CC4)nc3n3c2sc2ccccc23)cn1", "measurement target": "A375 multi-cell spheroids with HUVEC/MSC, viability", "class name": "inactive"}
{"molecule": "Cc1cccc(N(C)C(=O)C2C(O)CCN2c2nc(C)cc(C(F)(F)F)c2C#N)c1 (stereo not given) + CN(C)c1ccc(Nc2c3ccc(NC(=O)CCN4CCCC4)cc3nc3cc(NC(=O)CCN4CCCC4)ccc23)cc1", "measurement target": "A375 multi-cell spheroids with HUVEC/MSC, viability", "class name": "inactive"}
{"molecule": "COc1ncnc(C2CC2)c1-c1ncc2cnn(Cc3ccc(-c4nc(C(F)(F)F)cn4C(C)C)cc3)c2n1 + Cc1[nH]c2ccc(F)cc2c1-c1nc2c3cccnc3c3ncccc3c2[nH]1", "measurement target": "A375 multi-cell spheroids with HUVEC/MSC, viability", "class name": "inactive"}
{"molecule": "COc1cccc2c1C(=O)c1c(O)c3c(c(O)c1C2=O)CC(O)(C(=O)CO)CC3OC1CC(N)C(O)C(C)O1 (stereo not given) + Cc1cnc(CNC(=O)c2c(=O)c3ccc(N4CCCN(C)CC4)nc3n3c2sc2ccccc23)cn1", "measurement target": "A375 multi-cell spheroids with HUVEC/MSC, viability", "class name": "inactive"}
{"molecule": "Cc1[nH]c2ccccc2c1CCNCc1ccc(/C=C/C(=O)NO)cc1 + Cc1cnc(CNC(=O)c2c(=O)c3ccc(N4CCCN(C)CC4)nc3n3c2sc2ccccc23)cn1", "measurement target": "A375 multi-cell spheroids with HUVEC/MSC, viability", "class name": "active"}
{"molecule": "Cn1ncnc1[C@H]1c2n[nH]c(=O)c3cc(F)cc(c23)N[C@@H]1c1ccc(F)cc1 + CN(C)c1ccc(Nc2c3ccc(NC(=O)CCN4CCCC4)cc3nc3cc(NC(=O)CCN4CCCC4)ccc23)cc1", "measurement target": "A375 multi-cell spheroids with HUVEC/MSC, viability", "class name": "inactive"}
{"molecule": "COc1cc(C2c3cc4c(cc3C(OC3OC5COC(C)OC5C(O)C3O)C3COC(=O)C23)OCO4)cc(OC)c1O (stereo not given) + CN(C)c1ccc(Nc2c3ccc(NC(=O)CCN4CCCC4)cc3nc3cc(NC(=O)CCN4CCCC4)ccc23)cc1", "measurement target": "A375 multi-cell spheroids with HUVEC/MSC, viability", "class name": "inactive"}
{"molecule": "CCCS(=O)(=O)Nc1ccc(F)c(C(=O)c2c[nH]c3ncc(-c4ccc(Cl)cc4)cc23)c1F + Cc1cnc(CNC(=O)c2c(=O)c3ccc(N4CCCN(C)CC4)nc3n3c2sc2ccccc23)cn1", "measurement target": "A375 multi-cell spheroids with HUVEC/MSC, viability", "class name": "active"}
{"molecule": "CC(C)n1c(=O)n(C)c2cnc3cc(F)c(-c4ccc(OCCCN5CCCCC5)nc4)cc3c21 + Cc1[nH]c2ccc(F)cc2c1-c1nc2c3cccnc3c3ncccc3c2[nH]1", "measurement target": "A375 multi-cell spheroids with HUVEC/MSC, viability", "class name": "inactive"}
{"molecule": "COc1ncnc(C2CC2)c1-c1ncc2cnn(Cc3ccc(-c4nc(C(F)(F)F)cn4C(C)C)cc3)c2n1 + CN(C)c1ccc(Nc2c3ccc(NC(=O)CCN4CCCC4)cc3nc3cc(NC(=O)CCN4CCCC4)ccc23)cc1", "measurement target": "A375 multi-cell spheroids with HUVEC/MSC, viability", "class name": "inactive"}
{"molecule": "O=c1[nH]cc(F)c(=O)[nH]1 + Cc1cnc(CNC(=O)c2c(=O)c3ccc(N4CCCN(C)CC4)nc3n3c2sc2ccccc23)cn1", "measurement target": "A375 multi-cell spheroids with HUVEC/MSC, viability", "class name": "inactive"}
{"molecule": "CC(=O)O[C@H]1C(=O)[C@@]2(C)[C@H]([C@H](OC(=O)c3ccccc3)[C@]3(O)C[C@H](OC(=O)[C@H](O)[C@@H](NC(=O)c4ccccc4)c4ccccc4)C(C)=C1C3(C)C)[C@]1(OC(C)=O)CO[C@@H]1C[C@@H]2O + Cc1[nH]c2ccc(F)cc2c1-c1nc2c3cccnc3c3ncccc3c2[nH]1", "measurement target": "A375 multi-cell spheroids with HUVEC/MSC, viability", "class name": "inactive"}
{"molecule": "Cn1ncnc1[C@H]1c2n[nH]c(=O)c3cc(F)cc(c23)N[C@@H]1c1ccc(F)cc1 + Cc1cnc(CNC(=O)c2c(=O)c3ccc(N4CCCN(C)CC4)nc3n3c2sc2ccccc23)cn1", "measurement target": "A375 multi-cell spheroids with HUVEC/MSC, viability", "class name": "inactive"}
{"molecule": "COc1cc(C2c3cc4c(cc3C(OC3OC5COC(C)OC5C(O)C3O)C3COC(=O)C23)OCO4)cc(OC)c1O (stereo not given) + Cc1cnc(CNC(=O)c2c(=O)c3ccc(N4CCCN(C)CC4)nc3n3c2sc2ccccc23)cn1", "measurement target": "A375 multi-cell spheroids with HUVEC/MSC, viability", "class name": "inactive"}
